Please respond with reported drug sensitivity score for every item in the list.
System: normal primary NK cells, pool 1 (3 donors), resting (IL-2 0 ng/mL)
Test: drug sensitivity score (DSS) (DSS units); higher = more sensitive; extreme values may be limits of the assay
Conditions: 72 h

Reported drug sensitivity score for COc1cc(CCc2cc(NC(=O)c3ccc(N4CC(C)NC(C)C4)cc3)n[nH]2)cc(OC)c1 (stereo not given) [AZD4547] (max concentration tested 1000 nM) : what is it?
0.81

Entry to check: CC/C(=C(\c1ccccc1)c1ccc(OCCN(C)C)cc1)c1ccccc1 [Tamoxifen] (max concentration tested 10000 nM)
8.03

Entry to check: Cc1c(CN2CCN(C(=O)[C@H](C)O)CC2)sc2c(N3CCOCC3)nc(-c3cnc(N)nc3)nc12 [Apitolisib] (max concentration tested 10000 nM)
4.44

Entry to check: NS(=O)(=O)OC[C@@H]1C[C@@H](n2ccc3c(N[C@H]4CCc5ccccc54)ncnc32)C[C@@H]1O [Pevonedistat] (max concentration tested 10000 nM)
0

Entry to check: COc1cc([C@@H]2c3cc4c(cc3[C@@H](O[C@@H]3O[C@@H]5CO[C@@H](C)O[C@H]5[C@H](O)[C@H]3O)[C@H]3COC(=O)[C@H]23)OCO4)cc(OC)c1O [Etoposide] (max concentration tested 10000 nM)
11.3

###

System: normal primary NK cells, pool 1 (3 donors), resting (IL-2 0 ng/mL)
Assay: percent inhibition of viability; higher = more inhibition
Conditions: 72 h; 1 nM
Please respond with reported percent inhibition of viability for every item in the list.

Reported percent inhibition of viability for N#CC1(c2ccc(NC(=O)c3cccnc3NCc3ccncc3)cc2)CCCC1 [Apatinib] (max concentration tested 10000 nM) : what is it?
-2.35%

Entry to check: Nc1ccccc1NC(=O)c1ccc(CNc2nccc(-c3cccnc3)n2)cc1 [Mocetinostat] (max concentration tested 10000 nM)
6.94%

Entry to check: O=C(O)c1ccc(-c2c[nH]c3ncc(-c4ccccc4)cc23)cc1C1CCCC1 (max concentration tested 10000 nM)
-0.46%

Entry to check: CC/C(=C(\c1ccccc1)c1ccc(OCCN(C)C)cc1)c1ccccc1 [Tamoxifen] (max concentration tested 10000 nM)
2.3%

Entry to check: Nc1nc(Nc2ccc3c(c2)CC[C@@H](N2CCCC2)CC3)nn1-c1cc2c(nn1)-c1ccccc1CCC2 [BGB324] (max concentration tested 10000 nM)
7.14%

Entry to check: CCN(CC)CCOc1ccc(C(=C(Cl)c2ccccc2)c2ccccc2)cc1 [Clomifene] (max concentration tested 10000 nM)
-1.08%

Entry to check: O=C(CCCCCCNC(=O)c1cnc(N(c2ccccc2)c2ccccc2)nc1)NO [Rocilinostat] (max concentration tested 10000 nM)
8.2%

Entry to check: O=C1NC(=O)[C@@H](c2cn3c4c(cccc24)CCC3)[C@@H]1c1c[nH]c2ccccc12 [Tivantinib] (max concentration tested 1000 nM)
10.8%

Entry to check: CN[C@@H](C)C(=O)N[C@H]1CN(C(=O)CC(C)C)CC[C@H]2CC[C@@H](C(=O)NC(c3ccccc3)c3ccccc3)N2C1=O [AT-406] (max concentration tested 10000 nM)
-17.3%

Entry to check: CN1CCN(c2nc(C3=C(c4c[nH]c5ccccc45)C(=O)NC3=O)c3ccccc3n2)CC1 [Sotrastaurin] (max concentration tested 10000 nM)
-32.7%

Entry to check: Nc1nc(Cl)nc2c1ncn2[C@@H]1O[C@H](CO)[C@@H](O)[C@@H]1F [Clofarabine] (max concentration tested 10000 nM)
-1.53%

Entry to check: CC[C@H](CC#N)OC(=O)N[C@@H](C)c1cccc(NC(=O)Nc2ccc(-c3cnco3)c(OC)c2)c1 [AVN944] (max concentration tested 10000 nM)
-10.3%

Entry to check: CCC1(c2ccc(N)cc2)CCC(=O)NC1=O (centres undefined) [Aminoglutethimide] (max concentration tested 10000 nM)
-3.93%

Entry to check: CO[C@H]1C[C@@H]2CC[C@@H](C)[C@@](O)(O2)C(=O)C(=O)N2CCCC[C@H]2C(=O)O[C@H]([C@H](C)C[C@@H]2CC[C@@H](OCCO)[C@H](OC)C2)CC(=O)[C@H](C)/C=C(\C)[C@@H](O)[C@@H](OC)C(=O)[C@H](C)C[C@H](C)/C=C/C=C/C=C/1C [Everolimus] (max concentration tested 100 nM)
-6.43%

###

Tested on: NK-YS (IL-2 2.5 ng/mL)
Assay: percent inhibition of viability; higher = more inhibition
Conditions: 72 h; 2500 nM
metric.name: percent inhibition of viability (%)
Please reply with the bare figure in % and do not write the unit itself.

Reported percent inhibition of viability for Cc1cc([C@@H](C)Nc2ccccc2C(=O)O)c2nc(N3CCOCC3)cc(=O)n2c1 [AZD-6482] (max concentration tested 2500 nM) : what is it?
7.94

Entry to check: CC(C)Cn1cnc2c(N)nc3ccccc3c21 [Imiquimod] (max concentration tested 2500 nM)
16.1

Entry to check: O=C(Nc1cc(Cl)cc2c1[nH]c1cnccc12)c1cccnc1 [PS-1145] (max concentration tested 25000 nM)
7.41

Entry to check: CN[C@@H](C)C(=O)N[C@H](C(=O)N1CCC[C@H]1c1nc(C(=O)c2ccc(F)cc2)cs1)C1CCCCC1 [LCL161] (max concentration tested 25000 nM)
-8.9

###

Please respond with reported percent inhibition of viability for every item in the list.
Test system: NK-92 (IL-2 2.5 ng/mL)
Test: percent inhibition of viability; higher = more inhibition
Conditions: 72 h; 10 nM

Field: percent inhibition of viability (NK-92 (IL-2 2.5 ng/mL)). Entry: COc1nc(N)nc2c1ncn2[C@@H]1O[C@H](CO)[C@@H](O)[C@@H]1O [Nelarabine] (max concentration tested 10000 nM)
-6.85%

Entry to check: CN[C@@H](C)C(=O)N[C@H]1CN(C(=O)CC(C)C)CC[C@H]2CC[C@@H](C(=O)NC(c3ccccc3)c3ccccc3)N2C1=O [AT-406] (max concentration tested 10000 nM)
-16.2%

Entry to check: Cn1c(Nc2ccc(C(F)(F)F)cc2)nc2cc(Oc3ccnc(-c4ncc(C(F)(F)F)[nH]4)c3)ccc21 [RAF265] (max concentration tested 1000 nM)
-9.27%

Entry to check: Oc1nc(-c2ccc(C(F)(F)F)cc2)nc2c1CSCC2 [XAV-939] (max concentration tested 10000 nM)
2.21%

Entry to check: CC/C(=C(\c1ccccc1)c1ccc(OCCN(C)C)cc1)c1ccccc1 [Tamoxifen] (max concentration tested 10000 nM)
-1.59%

Entry to check: C[C@@H]1C[C@H]2[C@@H]3CCC4=CC(=O)C=C[C@]4(C)[C@@]3(F)[C@@H](O)C[C@]2(C)[C@@]1(O)C(=O)CO [Dexamethasone] (max concentration tested 10000 nM)
-20.1%

Entry to check: c1ccc(Cn2c(-c3ccc(OC[C@H](C4CCNCC4)n4c(-c5ccccc5)nc5ccccc54)cc3)nc3ccccc32)cc1 [deltarasin] (max concentration tested 10000 nM)
-14.8%

###

Please respond with reported percent inhibition of viability for every item in the list.
Tested on: normal primary NK cells, pool 1 (3 donors), resting (IL-2 0 ng/mL)
Assay: percent inhibition of viability; higher = more inhibition
Conditions: 72 h; 10 nM
Please reply with the bare figure in % and do not write the unit itself.

Reported percent inhibition of viability for CN(N=O)C(=O)N[C@@H](C=O)[C@@H](O)[C@H](O)[C@H](O)CO [Streptozocin] (max concentration tested 10000 nM) : what is it?
-22.8

Entry to check: C=C(c1ccc(C(=O)O)cc1)c1cc2c(cc1C)C(C)(C)CCC2(C)C [Bexarotene] (max concentration tested 10000 nM)
-4.44

Entry to check: C=CCn1c(=O)c2cnc(Nc3ccc(N4CCN(C)CC4)cc3)nc2n1-c1cccc(C(C)(C)O)n1 [MK1775] (max concentration tested 10000 nM)
-3.22

###

Tested on: NKL (IL-2 2.5 ng/mL)
Test: percent inhibition of viability; higher = more inhibition
Details: 72 h; 100 nM
Please respond with reported percent inhibition of viability for every item in the list.
Please reply with the bare figure in % and do not write the unit itself.

Reported percent inhibition of viability for CCCc1cc(C)[nH]c(=O)c1CNC(=O)c1cc(-c2ccnc(N3CCN(C)CC3)c2)cc2c1cnn2C(C)C [GSK343] (max concentration tested 10000 nM) : what is it?
-10.7

Entry to check: NC(=O)c1cccc(-c2cccc(OC(=O)NC3CCCCC3)c2)c1 [URB597] (max concentration tested 1000 nM)
15.1

Entry to check: CC(C)(C)NC(=O)[C@H]1CC[C@H]2[C@@H]3CC[C@H]4NC(=O)C=C[C@]4(C)[C@H]3CC[C@]12C [Finasteride] (max concentration tested 10000 nM)
10.7

Entry to check: C[C@@H](C(=O)O)c1ccc(-c2ccccc2)c(F)c1 [Tarenflurbil] (max concentration tested 10000 nM)
19.8

Entry to check: NC(=S)N/N=C/c1ncccc1N [Triapine] (max concentration tested 10000 nM)
-11.9

Entry to check: CN(C)CCN1C(=O)c2cccc3cc(N)cc(c23)C1=O [Amonafide] (max concentration tested 10000 nM)
-4.03

Entry to check: O=C(CCCCCCC(=O)Nc1ccc([C@H]2O[C@@H](CSc3nc(-c4ccccc4)c(-c4ccccc4)o3)C[C@@H](c3ccc(CO)cc3)O2)cc1)NO [Tubacin] (max concentration tested 10000 nM)
-1.27

Entry to check: CCC1(c2ccc(N)cc2)CCC(=O)NC1=O (configuration not stated) [Aminoglutethimide] (max concentration tested 10000 nM)
18.7

Entry to check: NC1(c2ccc(-c3nc4ccn5c(=O)[nH]nc5c4cc3-c3ccccc3)cc2)CCC1 [MK-2206] (max concentration tested 1000 nM)
11.8

Entry to check: O=C(O)CC[C@H]1CC[C@@](c2cc(F)ccc2F)(S(=O)(=O)c2ccc(Cl)cc2)CC1 [MK-0752] (max concentration tested 1000 nM)
0.27

Entry to check: C[C@]12CC[C@@H]3c4ccc(O)cc4C[C@@H](CCCCCCCCC[S+]([O-])CCCC(F)(F)C(F)(F)F)[C@H]3[C@@H]1CC[C@@H]2O (some centres not stated) [Fulvestrant] (max concentration tested 1000 nM)
9.49

Entry to check: O=C(CCCCCCC(=O)Nc1ccccc1)NO [Vorinostat] (max concentration tested 10000 nM)
15.1
